system: SF-539; assay: NCI tumour cell line growth inhibition, 48 h
Activity calls are given as the source filed them. No stated cut-off is given here; in the data, active = GI50 up to about 1.1 µM and inactive = higher.
Classes used: active, inactive

[[record]]
molecule = "CC(=O)N1c2ccccc2Sc2cc(C(O)(C(F)(F)F)C(F)(F)F)ccc21"
label_value = "inactive"

[[record]]
molecule = "O=c1[nH]c(=O)n(C/C=C/CBr)nc1Br"
label_value = "inactive"

[[record]]
molecule = "CCN(CC)c1oc(N(CC)CC)c(C(=O)Nc2ccccn2)c(=O)c1C(C)=O"
label_value = "inactive"

[[record]]
molecule = "COC(=O)Nc1nc2cc(NS(=O)(=O)c3ccc(Cl)cc3)ccc2[nH]1"
label_value = "inactive"

[[record]]
molecule = "CCC(C)C1NC(=O)C(NC(=O)C(CC(C)C)N(C)C(=O)[C@@H]2C=CCN2C(=O)[C@H](C)O)C(C)OC(=O)[C@H](Cc2ccc(OC)cc2)N(C)C(=O)[C@@H]2CCCN2C(=O)[C@H](CC(C)C)NC(=O)C(C)C(=O)[C@H](C(C)C)OC(=O)CC1O (stereo partly specified)"
label_value = "active"

[[record]]
molecule = "O=C1NC(N2CCCC(CO)C2)=N/C1=C\\c1ccc(Cl)cc1 (stereo unspecified)"
label_value = "inactive"

